Data export: ΔTm values recorded with Lysosomal acid glucosylceramidase (Homo sapiens).
experimentalReadout: ΔTm (°C)

// below: answered compounds
O=S(=O)(c1ccc2c(c1)OCCO2)N1CCN(c2nc(-c3cccs3)nc3ccccc23)CC1	0.37
OC[C@H]1CNC[C@@H](O)[C@@H]1O	0.4

(1) O=S(=O)(c1ccc2ccccc2c1)N1CCN(c2nc(-c3cccs3)nc3ccccc23)CC1
(2) COc1ccccc1S(=O)(=O)N1CCN(c2nc(-c3cccs3)nc3ccccc23)CC1
(3) Cc1ccc(S(=O)(=O)N2CCN(c3nc(-c4cccs4)nc4ccccc34)CC2)cc1
input: Rank by ΔTm (largest to smallest). To answer, arrange all of the labels according to the requested order.
output: 2, 3, 1

----------
measuredTarget: Lysosomal acid glucosylceramidase (Homo sapiens) (UniProt P04062)
Sequence (whole entry): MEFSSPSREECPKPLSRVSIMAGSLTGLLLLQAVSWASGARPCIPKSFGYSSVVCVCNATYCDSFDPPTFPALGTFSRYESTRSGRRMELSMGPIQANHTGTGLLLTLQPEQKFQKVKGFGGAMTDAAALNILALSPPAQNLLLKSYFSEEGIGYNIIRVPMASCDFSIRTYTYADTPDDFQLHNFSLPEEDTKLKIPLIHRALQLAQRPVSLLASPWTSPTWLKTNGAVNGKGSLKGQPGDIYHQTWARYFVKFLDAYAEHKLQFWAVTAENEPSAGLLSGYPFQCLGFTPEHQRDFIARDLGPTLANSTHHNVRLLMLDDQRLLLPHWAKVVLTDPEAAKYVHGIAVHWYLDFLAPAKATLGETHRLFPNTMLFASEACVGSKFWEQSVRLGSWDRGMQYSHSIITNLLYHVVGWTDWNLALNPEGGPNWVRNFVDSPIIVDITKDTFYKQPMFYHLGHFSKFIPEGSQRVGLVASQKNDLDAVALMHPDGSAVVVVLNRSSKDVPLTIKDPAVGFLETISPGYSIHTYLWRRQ
experimentalReadout: ΔTm (°C)

O=S(=O)(c1ccc2ccccc2c1)N1CCN(c2nc(-c3cccs3)nc3ccccc23)CC1	4.35
O=S(=O)(c1ccc2c(c1)OCCO2)N1CCN(c2nc(-c3cccs3)nc3ccccc23)CC1	11.7

(1) Cc1ccc(S(=O)(=O)N2CCN(c3nc(-c4cccs4)nc4ccccc34)CC2)cc1
(2) COc1ccccc1S(=O)(=O)N1CCN(c2nc(-c3cccs3)nc3ccccc23)CC1
(3) OC[C@H]1CNC[C@@H](O)[C@@H]1O
input: Please produce an ascending ranking of these compounds based on ΔTm. Reply with the labels, ordered as the question asks.
output: 2, 1, 3
(2: -0.01 °C, 1: 0.84 °C, 3: 5.5 °C)

----------
assay: Inhibition of alpha-glucosidase; also: test concentration or dose not given here
Active and inactive are the calls of the source. The rule behind the calls is not given here.
experimentalReadout: Activity

O=[N+]([O-])c1cccc(S(=O)(=O)N2CCN(c3nc(-c4cccs4)nc4ccccc34)CC2)c1	inactive
O=S(=O)(/C=C/c1ccccc1)N1CCN(c2nc(-c3cccnc3)nc3ccccc23)CC1	inactive
O=S(=O)(c1ccccc1F)N1CCN(c2nc(-c3cccs3)nc3ccccc23)CC1	inactive
O=S(=O)(c1ccccc1Cl)N1CCN(c2nc(-c3cccs3)nc3ccccc23)CC1	inactive
